B1: Pistol ribozyme (parent)
chain: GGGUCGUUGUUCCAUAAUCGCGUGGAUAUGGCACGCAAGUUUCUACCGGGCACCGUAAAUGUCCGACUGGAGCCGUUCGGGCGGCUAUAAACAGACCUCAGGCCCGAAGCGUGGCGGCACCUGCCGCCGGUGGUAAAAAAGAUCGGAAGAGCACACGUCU

variants of: B1; experiment: aptazyme ON/OFF ratio, guanine; higher = stronger switching; co-transcriptional cleavage with and without guanine
ASSAY METRIC: aptazyme ON/OFF ratio
Number only, no unit.

Below are worked cases with known answers.
| VARIANT NOTATION | ASSAY METRIC | RECORDED MEASUREMENT |
| --- | --- | --- |
| U7G G9U U10G U11A C12A | aptazyme ON/OFF ratio | 1.15 |
| U7G U8C U10G U11A C13G | aptazyme ON/OFF ratio | 1.13 |
| U7C U8C G9U U10A U11G C13A | aptazyme ON/OFF ratio | 1.12 |

Reported aptazyme ON/OFF ratio for U7C U8G G9C U10A U11G C12A C13A : what is it? 1.08
